# Target System: TDP-43 peptide (amino acids 307-319) (Homo sapiens)
# Protocol Notes: TDP-43 thioflavin T assay
# Assay type: biochemical
# Measurement Conditions: ThT RFU at 15 hours; 100% = TDP-43 + DMSO
# Method: The effect of compounds on fibril formation by TDP-43 peptide (amino acids 307-319) was screened using a thioflavin T (ThT) fluorescence assay in a 96-well plate format. […] ThT fluorescence was measured through the bottom of the plate using 440- and 480-nm excitation and emission filters for 15 hours at 0.5-hour intervals. […] The relative fluorescence unit (RFU) at 15 hours was used to rank the percent of aggregation for all tested compounds.
Decide using % aggregation TDP-43 ThT at 50 μM TDP-43: a value greater than or equal to 50% is Y, a smaller one is N.

Test Smiles: CC(=O)Nc1ccc2c(c1)CCN(CCc1ccccc1)C2
Target System: TDP-43 peptide (amino acids 307-319) (Homo sapiens)
Qualitative Label: Y

Test Smiles: Clc1cccc(CCN2CCc3ccccc3C2)c1
Target System: TDP-43 peptide (amino acids 307-319) (Homo sapiens)
Qualitative Label: Y

Test Smiles: CC(=O)Nc1ccc2c(c1)CN(CCc1ccc(O)c(Cl)c1)C2
Target System: TDP-43 peptide (amino acids 307-319) (Homo sapiens)
Qualitative Label: N

Test Smiles: CC(=O)N(C)c1ccc2c(c1)CN(CCc1ccc(O)c(Cl)c1)C2.Cl
Target System: TDP-43 peptide (amino acids 307-319) (Homo sapiens)
Qualitative Label: N

Test Smiles: CC(=O)Nc1ccc2c(c1)CN(CCc1cccc(Cl)c1)CC2
Target System: TDP-43 peptide (amino acids 307-319) (Homo sapiens)
Qualitative Label: Y

Test Smiles: CC(=O)Nc1ccc2c(c1)CCN(CCc1cccc(Cl)c1)C2
Target System: TDP-43 peptide (amino acids 307-319) (Homo sapiens)
Qualitative Label: Y

Test Smiles: CC(=O)Nc1ccc2c(c1)CCN(CCc1ccc(F)c(Cl)c1)C2
Target System: TDP-43 peptide (amino acids 307-319) (Homo sapiens)
Qualitative Label: Y

* * *

Each record here notes measured % remaining TDP-43 cytosolic aggregates after 100 μM compound addition.
# Target System: TDP-43 cytosolic aggregates (TDP-43-tGFP-U2OS cell line) (Homo sapiens, UniProt Q13148)
# Construct: expressed in transfected cells; host or cells: U2OS (recombinant, IPTG-inducible TDP-43 expression)
# Sequence (Q13148 whole entry): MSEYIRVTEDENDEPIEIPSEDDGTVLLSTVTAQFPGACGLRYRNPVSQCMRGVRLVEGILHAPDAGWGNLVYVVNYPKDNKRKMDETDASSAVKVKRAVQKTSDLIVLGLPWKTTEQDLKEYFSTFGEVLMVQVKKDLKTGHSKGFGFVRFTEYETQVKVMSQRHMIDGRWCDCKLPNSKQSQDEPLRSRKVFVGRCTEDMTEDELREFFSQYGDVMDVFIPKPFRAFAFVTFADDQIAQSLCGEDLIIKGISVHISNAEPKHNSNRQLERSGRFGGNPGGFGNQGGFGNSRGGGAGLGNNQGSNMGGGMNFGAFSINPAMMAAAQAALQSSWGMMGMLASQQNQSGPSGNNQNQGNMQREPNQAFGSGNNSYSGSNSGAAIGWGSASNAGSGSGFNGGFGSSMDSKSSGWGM
# Protocol Notes: TDP-43 cytoplasmic aggregation assay
# Format: cell-based
# Measurement Conditions: 100 μM compound; TDP-43-tGFP-U2OS cells; lower = more potent
# Procedure: Recombinant TDP-43-tGFP-U2OS cell line was thawed (2×10^6 cells per T75) and was maintained in DMEM-F12 supplemented with 10% FBS at 37° C. in a humidified 5% CO2 atmosphere. […] Cells were treated with 125-250 μM of sodium arsenite for 120 min and TDP-43 punctae formation was quantified in both cell cytoplasm and cell nucleus, in living cells. The nuclei were stained using Hoechst (0.5 μg/ml) and the fluorescence was measured using a Cell Insight High-Content Bioimager from Thermo Fisher. […]
Measured Endpoint: % remaining TDP-43 cytosolic aggregates after 100 μM compound addition (%)

Test Smiles: CC(=O)Nc1ccc2c(c1)CCN(CCc1ccccc1)C2
Units Of Measure: %
Modifier: >
Readout Value: 99.9
//
Test Smiles: Clc1cccc(CCN2CCc3ccccc3C2)c1
Units Of Measure: %
Modifier: =
Readout Value: 40.7
//
Test Smiles: CNC(=O)c1ccc2c(c1)CCN(CCc1cccc(Cl)c1)C2
Units Of Measure: %
Modifier: =
Readout Value: 59.1
//
Test Smiles: CC(=O)Nc1ccc2c(c1)CN(CCc1cccc(Cl)c1)CC2
Units Of Measure: %
Modifier: =
Readout Value: 93.7

* * *

# key: entry, value: % alpha synuclein aggregation as measured on ThT
# Target System: alpha-synuclein (Homo sapiens)
# Construct: purchased Proteos RP-003
# Protocol Notes: Alpha-synuclein thioflavin T assay
# Type: biochemical
# Measurement Conditions: 250 μM compound on pre-formed aggregates of 50 μM alpha-synuclein, 24 hours; 100% = alpha synuclein + DMSO
Measured Endpoint: % alpha synuclein aggregation as measured on ThT (%)

Test Smiles: CC(=O)Nc1ccc2c(c1)CCN(CCc1ccccc1)C2
Units Of Measure: %
Modifier: =
Readout Value: 82.8
--
Test Smiles: CC(=O)Nc1ccc2c(c1)CCN(CCc1cccc(Cl)c1)C2
Units Of Measure: %
Modifier: =
Readout Value: 77.8
--
Test Smiles: CNC(=O)c1ccc2c(c1)CCN(CCc1cccc(Cl)c1)C2
Units Of Measure: %
Modifier: >
Readout Value: 99.9
--
Test Smiles: CC(=O)Nc1ccc2c(c1)CCN(CCc1ccc(F)c(Cl)c1)C2
Units Of Measure: %
Modifier: =
Readout Value: 95.6
--
Test Smiles: CC(=O)Nc1ccc2c(c1)CN(CCc1cccc(Cl)c1)CC2
Units Of Measure: %
Modifier: >
Readout Value: 99.9
--
Test Smiles: Clc1cccc(CCN2CCc3ccccc3C2)c1
Units Of Measure: %
Modifier: =
Readout Value: 99

* * *

# Target System: Aβ 1-42 (Homo sapiens)
# Construct: The monomeric form of Aβ 1-42 (rPeptide, A1170-025) film; purchased rPeptide A1170-025
# Sequence (P05067 672-713 limits assumed): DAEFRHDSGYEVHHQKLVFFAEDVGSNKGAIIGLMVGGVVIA
# Protocol Notes: Aβ42 thioflavin T assay
# Assay type: biochemical
# Measurement Conditions: 50 μM compound, 5 μM Aβ 1-42, ThT RFU at 15 hours; 100% = Aβ + DMSO; read-out: Aβ42 % aggregation at 50 μM
Measured Endpoint: activity at 50 µM (%)

Compound: CC(=O)Nc1ccc2c(c1)CCN(CCc1ccccc1)C2 [Compound 3]
Units Of Measure: %
Modifier: >
Readout Value: 99.9

Compound: CC(=O)Nc1ccc2c(c1)CCN(CCc1cccc(Cl)c1)C2 [Compound 1]
Units Of Measure: %
Modifier: =
Readout Value: 60.9

Compound: CC(=O)Nc1ccc2c(c1)CN(CCc1cccc(Cl)c1)CC2 [Compound 6]
Units Of Measure: %
Modifier: =
Readout Value: 59.7

Compound: CC(=O)Nc1ccc2c(c1)CCN(CCc1ccc(F)c(Cl)c1)C2 [Compound 2]
Units Of Measure: %
Modifier: =
Readout Value: 73.5

Compound: CNC(=O)c1ccc2c(c1)CCN(CCc1cccc(Cl)c1)C2 [Compound 4]
Units Of Measure: %
Modifier: =
Readout Value: 74.6
